Target Entity: 5ht1b (Homo sapiens, UniProt P28222)
Sequence (P28222 whole entry, species assumed): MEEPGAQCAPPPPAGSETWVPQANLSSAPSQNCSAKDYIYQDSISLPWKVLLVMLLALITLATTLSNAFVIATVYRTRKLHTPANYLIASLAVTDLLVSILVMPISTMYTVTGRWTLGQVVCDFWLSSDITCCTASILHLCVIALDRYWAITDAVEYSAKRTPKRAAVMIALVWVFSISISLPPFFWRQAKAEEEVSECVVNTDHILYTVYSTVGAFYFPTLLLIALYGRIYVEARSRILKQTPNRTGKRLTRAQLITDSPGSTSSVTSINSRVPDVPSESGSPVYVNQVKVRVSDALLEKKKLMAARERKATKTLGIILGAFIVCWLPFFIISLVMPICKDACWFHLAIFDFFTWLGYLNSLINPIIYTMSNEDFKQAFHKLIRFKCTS
Test Protocol: PDSP radioligand binding assay
Study Conditions: Table 10
pKi: −log10 of the molar value.
Endpoint: pKi

The recorded pKi with 5ht1b (Homo sapiens, UniProt P28222) for Clc1ccc(CSc2nnc(-c3ccccn3)n2Cc2ccco2)cc1Cl [Compound 2{8}] was < 5.00

---

Target Entity: D1 (Homo sapiens, UniProt P21728)
Sequence (P21728 whole entry): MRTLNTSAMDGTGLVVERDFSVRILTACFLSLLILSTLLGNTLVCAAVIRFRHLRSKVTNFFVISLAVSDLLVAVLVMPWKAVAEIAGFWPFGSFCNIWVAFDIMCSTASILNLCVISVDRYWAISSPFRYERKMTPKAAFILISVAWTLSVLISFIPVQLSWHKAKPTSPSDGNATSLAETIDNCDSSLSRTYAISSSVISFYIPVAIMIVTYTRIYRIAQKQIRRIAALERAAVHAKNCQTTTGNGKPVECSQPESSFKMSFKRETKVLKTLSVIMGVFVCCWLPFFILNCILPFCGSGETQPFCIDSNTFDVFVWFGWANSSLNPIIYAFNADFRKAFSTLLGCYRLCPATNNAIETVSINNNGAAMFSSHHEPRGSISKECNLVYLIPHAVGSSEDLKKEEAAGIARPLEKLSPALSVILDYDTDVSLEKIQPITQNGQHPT
Test Protocol: PDSP radioligand binding assay
Study Conditions: Table 10
Endpoint: Ki (nM)
Form entry: value (nM) — number only.

For Clc1ccc(CSc2nnc(-c3ccccn3)n2Cc2ccco2)cc1Cl [Compound 2{8}] the compound record lists Ki as 1800
